Every entry's value here was drawn from patent EP0354694A1.

Test system: BALB/c mice
Assay: cutaneous hypersensitivity test (CH test), oxazolone-induced ear swelling
Type: in vivo
Conditions: Mus musculus, ip, 192 h; female BALB/c mice, intraperitoneal, daily from sensitisation for 8 days; lowest dose used with 20% or greater significant (p <0.05) reduction in ear swelling in two out of three CH tests; read-out: Minimum Effective Dose
measured_quantity: minimal effective dose (mg/kg)

compound: Cc1ccc2sc(C)c3c(=O)n(-c4ccc(Cl)cc4)nc-3c2c1
measured_quantity: minimal effective dose
result: 3

compound: CC12CSc3ccccc3C1=NN(c1ccc(Cl)cc1)C2=O (stereo not drawn)
measured_quantity: minimal effective dose
result: 3

compound: CSc1ccc(N2N=C3c4ccccc4SCC3(C)C2=O)cc1 (stereo not drawn)
measured_quantity: minimal effective dose
result: 50

---

Each item that follows carries a reported minimal effective dose.
Tested on: BALB/c mice
Assay: cutaneous hypersensitivity test (CH test), oxazolone-induced ear swelling
Format: in vivo
Settings: Mus musculus, ip, 192 h; female BALB/c mice, intraperitoneal, daily from sensitisation for 8 days; lowest dose used with 20% or greater significant (p <0.05) reduction in ear swelling in two out of three CH tests; read-out: Minimum Effective Dose

compound: Cc1sc2ccccc2c2nn(-c3ccc(C(F)(F)F)cc3)c(=O)c1-2
test_target: BALB/c mice
minimal effective dose / mg/kg: 0.3
--
compound: Cc1sc2ccccc2c2nn(-c3ccc(Br)cc3)c(=O)c1-2
test_target: BALB/c mice
minimal effective dose / mg/kg: 50
--
compound: CC1Sc2ccccc2-c2[nH]n(-c3ccc(Cl)c(Cl)c3)c(=O)c21 (centres unmarked)
test_target: BALB/c mice
minimal effective dose / mg/kg: 50
--
compound: Cc1sc2ccccc2c2nn(-c3ccc(F)cc3)c(=O)c1-2
test_target: BALB/c mice
minimal effective dose / mg/kg: 10
--
compound: CC12CSc3ccccc3C1=NN(c1cccc(Cl)c1)C2=O (centres unmarked)
test_target: BALB/c mice
minimal effective dose / mg/kg: 3

---

Each item that follows carries a reported minimal effective dose.
System: BALB/c mice
Experiment: cutaneous hypersensitivity test (CH test), oxazolone-induced ear swelling
Type: in vivo
Conditions: Mus musculus, ip, 192 h; female BALB/c mice, intraperitoneal, daily from sensitisation for 8 days; lowest dose used with 20% or greater significant (p <0.05) reduction in ear swelling in two out of three CH tests; read-out: Minimum Effective Dose
measured_quantity: minimal effective dose (mg/kg)

molecule: CC12CSc3ccc(Cl)cc3C1=NN(c1ccc(Cl)c(Cl)c1)C2=O (stereo not shown)
measured_quantity: minimal effective dose
result: 50

molecule: CC1Sc2ccccc2-c2[nH]n(-c3ccc(Cl)cc3)c(=O)c21 (stereo not shown)
measured_quantity: minimal effective dose
result: 30

molecule: CC12CSc3ccccc3C1=NN(c1ccc(Cl)c(Cl)c1)C2=O (stereo not shown)
measured_quantity: minimal effective dose
result: 0.3

molecule: Cc1ccc(N2N=C3c4ccccc4SCC3(C)C2=O)cc1Cl (stereo not shown)
measured_quantity: minimal effective dose
result: 3

molecule: CC12CSc3ccccc3C1=NN(c1ccc(Br)cc1)C2=O (stereo not shown)
measured_quantity: minimal effective dose
result: 1

molecule: CC1Sc2ccccc2-c2[nH]n(-c3ccc(C(F)(F)F)cc3)c(=O)c21 (stereo not shown)
measured_quantity: minimal effective dose
result: 3

molecule: Cc1sc2ccccc2c2nn(-c3ccc(Cl)c(Cl)c3)c(=O)c1-2
measured_quantity: minimal effective dose
result: 3

molecule: CC12CSc3ccccc3C1=NN(c1ccc(Br)c(Cl)c1)C2=O (stereo not shown)
measured_quantity: minimal effective dose
result: 0.3

molecule: COc1ccc(-n2nc3c4ccccc4sc(C)c-3c2=O)cc1
measured_quantity: minimal effective dose
result: 50

molecule: CC1Sc2ccccc2-c2[nH]n(-c3ccc(Br)cc3)c(=O)c21 (stereo not shown)
measured_quantity: minimal effective dose
result: 3

molecule: Cc1sc2ccccc2c2nn(-c3cccc(Cl)c3)c(=O)c1-2
measured_quantity: minimal effective dose
result: 50

molecule: CC12CSc3ccccc3C1=NN(c1ccc(F)c(Cl)c1)C2=O (stereo not shown)
measured_quantity: minimal effective dose
result: 3

molecule: CC12CSc3ccccc3C1=NN(c1ccc(C(F)(F)F)cc1)C2=O (stereo not shown)
measured_quantity: minimal effective dose
result: 0.3

molecule: CC1Sc2ccccc2-c2[nH]n(-c3ccc(F)cc3)c(=O)c21 (stereo not shown)
measured_quantity: minimal effective dose
result: 50

molecule: CC12CSc3ccccc3C1=NN(c1ccc(F)cc1)C2=O (stereo not shown)
measured_quantity: minimal effective dose
result: 50

molecule: CCC1Sc2ccccc2-c2[nH]n(-c3ccc(Cl)cc3)c(=O)c21 (stereo not shown)
measured_quantity: minimal effective dose
result: 50

molecule: CC12CSc3ccc(F)cc3C1=NN(c1ccc(Cl)cc1)C2=O (stereo not shown)
measured_quantity: minimal effective dose
result: 50

molecule: Cc1sc2ccccc2c2nn(-c3ccc(Cl)cc3)c(=O)c1-2
measured_quantity: minimal effective dose
result: 10

molecule: CCc1sc2ccccc2c2nn(-c3ccc(Cl)cc3)c(=O)c1-2
measured_quantity: minimal effective dose
result: 50
